Organism: Bos taurus
Assay: Inhibition of NADH oxidase activity in bovine heart sub-mitochondrial particles assessed as remaining enzyme activity at 5 uM by spectrophotometry relative to untreated control
Let's look at some molecules and their measured Activity.
Could you kindly put the unit after your number?

Some entries whose results are on file:
molecule: Cc1cc(N)nc(CCCCCCCCCCO)c1O
measured.metric: Activity
result: 52%

molecule: Cc1nc(N(C)C)nc(CCCCCCCCCCO)c1O
measured.metric: Activity
result: 26%

[Q] Value lookup for Activity; key = Cc1cc(N2C(C)CCC2C)nc(CCCCCCCCCCO)c1O (configuration not stated)
[A] 59%

[Q] Value lookup for Activity; key = Cc1cc(N(C)C)nc(CCCCCCCCCCO)c1O
[A] 42%

[Q] Value lookup for Activity; key = Cc1c(N(C)C)nc(CCCCCCCCCCO)c(O)c1C
[A] 9%

[Q] Value lookup for Activity; key = Cc1cc(-n2c(C)ccc2C)nc(CCCCCCCCCCO)c1O
[A] 49%

[Q] Value lookup for Activity; key = COC1=C(OC)C(=O)C(CCCCCCCCCCO)=C(C)C1=O
[A] 53%
